Field: inhibition at 10 µM. Provide a value for each of the compounds that follow.
# Target System: hA1AR (Homo sapiens, UniProt P30542)
# Construct: host or cells: CHO-A1 cells (membranes)
# Sequence (P30542 whole entry): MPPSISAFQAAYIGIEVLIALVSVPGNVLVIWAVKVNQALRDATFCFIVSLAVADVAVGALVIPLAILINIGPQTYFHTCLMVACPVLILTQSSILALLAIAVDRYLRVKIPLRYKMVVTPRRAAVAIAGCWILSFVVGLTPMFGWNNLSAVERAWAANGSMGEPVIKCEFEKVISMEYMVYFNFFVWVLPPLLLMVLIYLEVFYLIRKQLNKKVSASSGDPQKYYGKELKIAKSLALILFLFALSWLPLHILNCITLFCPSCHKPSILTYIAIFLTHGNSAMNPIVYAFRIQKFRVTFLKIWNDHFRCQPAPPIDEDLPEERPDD
# Procedure Summary: Radioligand competition binding assay at hA1AR ([3H]DPCPX)
# Method: Adenosine A1 receptor competition binding experiments were carried out in membranes from CHO-A1 cells (Euroscreen, Gosselies, Belgium). […] Nonspecific binding was determined in the presence of 10 μM (R)-PIA. The reaction mixture was incubated at 25 °C for 60 min, after which samples were filtered and measured in a microplate beta scintillation counter (Microbeta Trilux, Perkin Elmer, Madrid, Spain).
Give bare numbers, in %.

[[record]]
line_notation = "CN(C)C(=O)[C@H]1[Se][C@@H](n2cnc3c(NCc4cccc(I)c4)nc(Cl)nc32)[C@H](O)[C@@H]1O"
measured_value = 68

[[record]]
line_notation = "CNc1ncnc2c1ncn2[C@@H]1[Se][C@H](C(=O)N(C)C)[C@@H](O)[C@H]1O"
measured_value = 9

[[record]]
line_notation = "CN(C)C(=O)[C@H]1[Se][C@@H](n2cnc3c(NCc4cccc(I)c4)ncnc32)[C@H](O)[C@@H]1O"
measured_value = 36

[[record]]
line_notation = "CN(C)C(=O)[C@H]1[Se][C@@H](n2cnc3c(NCc4cccc(Cl)c4)nc(Cl)nc32)[C@H](O)[C@@H]1O"
measured_value = 63

[[record]]
line_notation = "CN(C)C(=O)[C@H]1[Se][C@@H](n2cnc3c(N)nc(Cl)nc32)[C@H](O)[C@@H]1O"
measured_value = 9

[[record]]
line_notation = "CN(C)C(=O)[C@H]1[Se][C@@H](n2cnc3c(NCc4cccc(F)c4)ncnc32)[C@H](O)[C@@H]1O"
measured_value = 13

[[record]]
line_notation = "CN(C)C(=O)[C@H]1[Se][C@@H](n2cnc3c(NCc4cccc(Br)c4)ncnc32)[C@H](O)[C@@H]1O"
measured_value = 43

[[record]]
line_notation = "CN(C)C(=O)[C@H]1[Se][C@@H](n2cnc3c(NCc4cccc(Br)c4)nc(Cl)nc32)[C@H](O)[C@@H]1O"
measured_value = 58

[[record]]
line_notation = "CN(C)C(=O)[C@H]1[Se][C@@H](n2cnc3c(NCc4cccc(F)c4)nc(Cl)nc32)[C@H](O)[C@@H]1O"
measured_value = 34

[[record]]
line_notation = "CNc1nc(Cl)nc2c1ncn2[C@@H]1[Se][C@H](C(=O)N(C)C)[C@@H](O)[C@H]1O"
measured_value = 58


Batch: inhibition at 10 µM for all items listed.
1. CN(C)C(=O)[C@H]1[Se][C@@H](n2cnc3c(NCc4cccc(Cl)c4)ncnc32)[C@H](O)[C@@H]1O
2. CN(C)C(=O)[C@H]1[Se][C@@H](n2cnc3c(N)ncnc32)[C@H](O)[C@@H]1O

Result:
[23, 16]
